Hello, the source for this data is paper PMC8589421, in case you need it.

Target: Flag-LRRK2[G2019S] (Homo sapiens, UniProt Q5S007, G2019S)
Construct: towards full length wild type and G2019S pathogenic LRRK2 mutant in a biochemical assay; Flag (N); purchased ThermoFisher Scientific A15201
Sequence (Q5S007 whole entry G2019S): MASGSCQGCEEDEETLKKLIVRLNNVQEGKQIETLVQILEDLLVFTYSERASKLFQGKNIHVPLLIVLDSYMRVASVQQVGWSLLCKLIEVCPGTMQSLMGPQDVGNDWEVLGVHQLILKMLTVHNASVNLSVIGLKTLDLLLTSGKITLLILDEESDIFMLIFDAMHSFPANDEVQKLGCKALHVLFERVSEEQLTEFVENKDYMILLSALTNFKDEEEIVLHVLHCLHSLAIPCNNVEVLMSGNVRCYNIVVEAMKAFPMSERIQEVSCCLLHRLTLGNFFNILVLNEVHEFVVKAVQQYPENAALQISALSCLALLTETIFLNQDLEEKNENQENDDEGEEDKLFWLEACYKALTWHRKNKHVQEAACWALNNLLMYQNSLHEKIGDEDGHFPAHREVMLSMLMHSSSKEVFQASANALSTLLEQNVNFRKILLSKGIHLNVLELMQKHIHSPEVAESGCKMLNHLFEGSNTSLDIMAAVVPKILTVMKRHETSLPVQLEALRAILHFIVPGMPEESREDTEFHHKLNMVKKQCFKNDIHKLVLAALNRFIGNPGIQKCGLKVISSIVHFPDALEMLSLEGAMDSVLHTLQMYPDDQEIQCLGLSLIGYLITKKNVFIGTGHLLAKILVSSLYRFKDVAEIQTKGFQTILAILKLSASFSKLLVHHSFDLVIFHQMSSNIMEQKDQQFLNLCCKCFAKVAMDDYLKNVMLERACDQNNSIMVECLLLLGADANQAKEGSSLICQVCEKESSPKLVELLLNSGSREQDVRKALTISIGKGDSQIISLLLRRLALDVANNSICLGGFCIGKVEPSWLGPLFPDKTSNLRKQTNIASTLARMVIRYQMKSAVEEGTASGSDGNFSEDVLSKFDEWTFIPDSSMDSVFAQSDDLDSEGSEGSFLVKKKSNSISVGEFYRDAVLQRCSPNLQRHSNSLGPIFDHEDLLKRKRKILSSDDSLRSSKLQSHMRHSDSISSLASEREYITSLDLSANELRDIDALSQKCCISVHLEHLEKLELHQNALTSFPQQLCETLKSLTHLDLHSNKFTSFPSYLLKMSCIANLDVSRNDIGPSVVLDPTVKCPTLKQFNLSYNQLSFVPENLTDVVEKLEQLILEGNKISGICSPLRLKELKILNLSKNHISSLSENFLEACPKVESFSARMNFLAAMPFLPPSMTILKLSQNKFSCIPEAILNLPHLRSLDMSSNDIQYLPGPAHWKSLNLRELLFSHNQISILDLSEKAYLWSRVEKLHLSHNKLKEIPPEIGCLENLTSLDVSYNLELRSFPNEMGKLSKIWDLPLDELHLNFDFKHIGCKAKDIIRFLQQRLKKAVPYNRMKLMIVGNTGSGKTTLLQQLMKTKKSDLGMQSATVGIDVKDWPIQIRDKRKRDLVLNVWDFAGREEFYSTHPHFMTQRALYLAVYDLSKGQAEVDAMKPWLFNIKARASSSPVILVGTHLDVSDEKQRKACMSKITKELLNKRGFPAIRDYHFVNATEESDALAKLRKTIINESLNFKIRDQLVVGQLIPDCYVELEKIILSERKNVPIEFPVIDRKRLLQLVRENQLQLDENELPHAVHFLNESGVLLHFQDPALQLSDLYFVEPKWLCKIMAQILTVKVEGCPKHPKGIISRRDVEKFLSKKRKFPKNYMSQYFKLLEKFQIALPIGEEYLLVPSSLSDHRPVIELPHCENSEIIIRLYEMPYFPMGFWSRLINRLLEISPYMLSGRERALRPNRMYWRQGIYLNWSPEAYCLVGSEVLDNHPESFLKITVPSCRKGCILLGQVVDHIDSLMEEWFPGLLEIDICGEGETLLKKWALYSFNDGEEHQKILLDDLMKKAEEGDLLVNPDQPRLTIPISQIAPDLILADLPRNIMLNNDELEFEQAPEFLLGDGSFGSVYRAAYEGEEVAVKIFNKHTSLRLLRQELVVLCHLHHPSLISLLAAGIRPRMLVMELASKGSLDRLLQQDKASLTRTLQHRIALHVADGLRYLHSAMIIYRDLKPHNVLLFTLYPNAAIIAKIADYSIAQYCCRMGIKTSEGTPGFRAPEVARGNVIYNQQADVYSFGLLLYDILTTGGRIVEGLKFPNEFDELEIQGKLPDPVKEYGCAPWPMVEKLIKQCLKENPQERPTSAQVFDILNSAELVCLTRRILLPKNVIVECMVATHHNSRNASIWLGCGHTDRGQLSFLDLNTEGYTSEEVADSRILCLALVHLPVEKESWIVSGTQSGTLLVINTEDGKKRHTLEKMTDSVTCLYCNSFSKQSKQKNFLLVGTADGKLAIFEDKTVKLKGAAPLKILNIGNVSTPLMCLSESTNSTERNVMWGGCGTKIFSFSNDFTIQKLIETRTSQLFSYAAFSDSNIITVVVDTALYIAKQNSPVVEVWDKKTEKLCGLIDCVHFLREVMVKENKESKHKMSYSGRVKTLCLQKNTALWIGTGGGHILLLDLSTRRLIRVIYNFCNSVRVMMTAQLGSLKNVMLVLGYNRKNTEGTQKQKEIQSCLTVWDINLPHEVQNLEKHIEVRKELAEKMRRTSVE
Assay: IC50 LRRK2 Nictide assay, G2019S
Assay type: biochemical
Settings: IC50 LRRK2 G2019S (100 µM ATP), Nictide peptide substrate, value ± SD
pIC50: −log10 of the molar value.

smilesRepr | pIC50
Cc1ccc(C(=O)Nc2ccc(CN3CCN(C)CC3)c(C(F)(F)F)c2)cc1C#Cc1cnc2[nH]ncc2c1 | 7.10

###

Test system: LRRK2 mediated phosphorylation of Rab10 at Thr73
Assay: Rab10 Thr73 phospho-immunoblot in wild-type MEFs
Type: cell-based, mouse
Conditions: Mus musculus, 2 h, wild-type MEFs, 2 h, Figure 2A; read-out: IC50 inhibition of Rab10 phosphorylation
measure: IC50

smilesRepr | assayTarget | measure | result
Cc1ccc(C(=O)Nc2ccc(CN3CCN(C)CC3)c(C(F)(F)F)c2)cc1C#Cc1cnc2[nH]ncc2c1 | LRRK2 mediated phosphorylation of Rab10 at Thr73 | IC50 | ~0.3 µM

###

Test system: Rab10 pThr73, LRRK2 [R1441C]
Assay: Rab10 Thr73 phospho-immunoblot in LRRK2[R1441C] knock-in MEFs
Assay type: cell-based, mouse
Conditions: Mus musculus, 2 h, LRRK2[R1441C] knock-in MEFs, read-out: LRRK2 [R1441C] Rab10 pThr73 IC50
pIC50: −log10 of the molar value.
measure: pIC50

molecule | assayTarget | number
Cc1ccc(C(=O)Nc2ccc(CN3CCN(C)CC3)c(C(F)(F)F)c2)cc1C#Cc1cnc2[nH]ncc2c1 [GZD-824] | Rab10 pThr73, LRRK2 [R1441C] | 6.58

###

System: Rab10 pThr73, LRRK2 [R1441C]
Experiment: Rab10 Thr73 phospho-immunoblot in LRRK2[R1441C] knock-in MEFs
Format: cell-based, mouse
Conditions: Mus musculus, 2 h, read-out: LRRK2 [R1441C] Rab10 pThr73 IC50
measure: IC50

compound | result
CNC(=O)c1cc(Oc2ccc(NC(=O)Nc3cc(C(C)(C)C)nn3-c3ccc4ncccc4c3)c(F)c2)ccn1 [Rebastinib] | 1.31 µM

###

Tested on: Rab10 pThr73, LRRK2 [G2019S]
Experiment: Rab10 Thr73 phospho-immunoblot in LRRK2[G2019S] knock-in MEFs
Assay type: cell-based, mouse
Details: Mus musculus, 2 h, read-out: LRRK2 [G2019S] Rab10 pThr73 IC50
measure: IC50

smilesRepr | measure | result
CNC(=O)c1cc(Oc2ccc(NC(=O)Nc3cc(C(C)(C)C)nn3-c3ccc4ncccc4c3)c(F)c2)ccn1 | IC50 | 1070 nM
